Target: SMYD2 (Homo sapiens)
Construct: Full length SMYD2 (NP 064582.2) was cloned; His6 (N, cleaved yes); FLAG (N); made in house; host or cells: Sf9 insect cells
Sequence (Q9NRG4 whole entry): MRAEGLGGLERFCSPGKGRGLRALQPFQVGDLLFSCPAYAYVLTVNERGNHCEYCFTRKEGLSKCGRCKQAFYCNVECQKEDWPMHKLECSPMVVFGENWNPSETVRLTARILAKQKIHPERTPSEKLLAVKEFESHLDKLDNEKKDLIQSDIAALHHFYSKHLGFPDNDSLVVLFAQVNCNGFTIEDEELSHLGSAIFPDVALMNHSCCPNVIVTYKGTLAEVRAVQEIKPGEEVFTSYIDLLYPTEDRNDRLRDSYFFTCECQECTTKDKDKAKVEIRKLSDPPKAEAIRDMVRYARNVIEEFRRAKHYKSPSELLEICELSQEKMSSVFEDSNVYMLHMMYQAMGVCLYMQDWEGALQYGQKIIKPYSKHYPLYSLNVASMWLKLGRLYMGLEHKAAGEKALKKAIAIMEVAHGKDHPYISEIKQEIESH
Assay: SMYD2 Biochemical Assay (3H-SAM, biotinylated peptide substrate, Flashplate)
Settings: Table 2; average of n = 1 to n = 50; read-out: SMYD2 Biochem IC50
assay readout: IC50 (µM)
Answer in µM, number only, no unit symbol.

Recorded results for 3 compounds are shown here.
- compound: "C[C@H]1CN(C2CCCC2)C[C@H]1NC(=O)c1cc(C2CC2)on1 (racemic)"
  measured on: "SMYD2 (Homo sapiens)"
  IC50 (µM): 5
- compound: "C[C@@H]1CN(C2CCN(C(=O)OC(C)(C)C)CC2)C[C@@H]1NC(=O)c1cc(C2CC2)on1 (racemic)"
  measured on: "SMYD2 (Homo sapiens)"
  IC50 (µM): 30.5
- compound: "C[C@H]1CN(CCN)C[C@H]1NC(=O)c1cc(C2CC2)on1 (racemic)"
  measured on: "SMYD2 (Homo sapiens)"
  IC50 (µM): 27.5

Attention now shifts to the item below.
The compound listed as C[C@H]1CN(Cc2ccncc2)C[C@H]1NC(=O)c1cc(C2CC2)on1 (racemic) shows IC50 equal to 22.6

Data origin: patent US20170253601A1
